Biological target: Neutrophil elastase (Homo sapiens) (UniProt P08246)
Experiment: Inhibition of human leukocyte elastase-induced lung hemorrhage in hamster, after 100 ug of compound administered intratracheally.
Type: functional, tissue-based
Task for the reader: assign each of the following molecules its reported inhibition.
Answers without a unit are incomplete; give the number and then its unit.

## Input inhibition for CCOC(=O)N1C(=O)C(CC)C1OCC(=O)O (trans isomer) ?
## Output 98%

## Input inhibition for CCOC(=O)N1C(=O)C(CC)C1SCC(=O)O (trans isomer) ?
## Output 56%

## Input inhibition for CCC1C(=O)N(C(=O)OCc2ccccc2)C1OCC(=O)O (trans isomer) ?
## Output 51%

## Input inhibition for CC[C@H]1C(=O)N(S(=O)(=O)c2ccc(C)cc2)[C@@H]1C(=O)O ?
## Output 98%

## Input inhibition for CCC1C(=O)N(C(=O)NCc2ccccc2)C1OCC(=O)O (configuration not stated) ?
## Output 50%

## Input inhibition for CC[C@@H]1C(=O)N(C(=O)NCc2ccccc2)[C@H]1Oc1ccc(C(=O)O)cc1 ?
## Output 17%

## Input inhibition for CCC1C(=O)N(S(=O)(=O)c2ccc(C)cc2)C1C(=O)O (cis isomer) ?
## Output 80%

----------
Biological target: Neutrophil elastase (Homo sapiens)
Assay: Inhibition of human leukocyte elastase-induced lung hemorrhage in hamster, after 100 ug of compound administered intratracheally.
Type: functional, tissue-based
Task for the reader: assign each of the following compounds its reported inhibition.
Just the number please, in %, no unit attached.

## Input # value lookup — system Neutrophil elastase (Homo sapiens), readout inhibition, item CCOC(=O)N1C(=O)C(CC)C1OCCCC(=O)O (trans isomer)
## Output 23

## Input # value lookup — system Neutrophil elastase (Homo sapiens), readout inhibition, item CCOC(=O)N1C(=O)C(CC)C1OCCC(=O)O (trans isomer)
## Output 31

## Input # value lookup — system Neutrophil elastase (Homo sapiens), readout inhibition, item CC[C@H]1C(=O)N(S(=O)(=O)c2ccc(C)cc2)[C@H]1C(=O)N(C)CC(=O)O
## Output 61

## Input # value lookup — system Neutrophil elastase (Homo sapiens), readout inhibition, item CCOC(=O)N1C(=O)[C@@H](CC)[C@@H]1OCC(=O)O
## Output 86

## Input # value lookup — system Neutrophil elastase (Homo sapiens), readout inhibition, item CC[C@H]1C(=O)N(C(=O)NCc2ccccc2)[C@@H]1Oc1ccc(C(=O)O)cc1
## Output 2

## Input # value lookup — system Neutrophil elastase (Homo sapiens), readout inhibition, item CC[C@H]1C(=O)N(S(=O)(=O)c2ccc(C)cc2)[C@@H]1C(=O)N(C)CC(=O)O
## Output 99

## Input # value lookup — system Neutrophil elastase (Homo sapiens), readout inhibition, item CCOC(=O)N1C(=O)C(CC)C1OCC(=O)O (cis isomer)
## Output 81

## Input # value lookup — system Neutrophil elastase (Homo sapiens), readout inhibition, item CCOC(=O)N1C(=O)C(CC)C1S(=O)(=O)CC(=O)O (trans isomer)
## Output 70

## Input # value lookup — system Neutrophil elastase (Homo sapiens), readout inhibition, item CCOC(=O)N1C(=O)C(CC)C1OC(C)C(=O)O (single isomer, unassigned; isomer B)
## Output 81

## Input # value lookup — system Neutrophil elastase (Homo sapiens), readout inhibition, item CCOC(=O)N1C(=O)[C@H](CC)[C@H]1OCC(=O)O
## Output 99

----------
Molecular target: Neutrophil elastase (Homo sapiens)
Sequence (whole entry): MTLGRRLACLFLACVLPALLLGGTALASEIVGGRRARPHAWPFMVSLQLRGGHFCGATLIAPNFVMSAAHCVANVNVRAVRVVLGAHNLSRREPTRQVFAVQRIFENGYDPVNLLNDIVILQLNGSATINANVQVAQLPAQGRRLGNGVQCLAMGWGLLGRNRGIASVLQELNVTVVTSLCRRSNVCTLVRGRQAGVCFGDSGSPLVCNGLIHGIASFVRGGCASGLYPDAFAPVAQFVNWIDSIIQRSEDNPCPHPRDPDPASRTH
Experiment: Inhibition of human leukocyte elastase, expressed as biomolecular rate constant.
Task for the reader: assign each of the following compounds its reported K obs / 1.
Just the number please, in M⁻¹ s⁻¹, no unit attached.

## Input K obs / 1 for CC[C@H]1C(=O)N(S(=O)(=O)c2ccc(C)cc2)[C@@H]1C(=O)N(C)CC(=O)O ?
## Output 271

## Input K obs / 1 for CC[C@H]1C(=O)N(C(=O)NCc2ccccc2)[C@@H]1Oc1ccc(C(=O)O)cc1 ?
## Output 3840

## Input K obs / 1 for CCC1C(=O)N(C(=O)OCc2ccccc2)C1OCC(=O)O (trans isomer) ?
## Output 955

## Input K obs / 1 for CC[C@@H]1C(=O)N(C(=O)NCc2ccccc2)[C@H]1Oc1ccc(C(=O)O)cc1 ?
## Output 339

## Input K obs / 1 for CCOC(=O)N1C(=O)C(CC)C1OC(C)C(=O)O (single isomer, unassigned; isomer B) ?
## Output 158

## Input K obs / 1 for CCC1C(=O)N(S(=O)(=O)c2ccc(C)cc2)C1C(=O)O (cis isomer) ?
## Output 93

## Input K obs / 1 for CCOC(=O)N1C(=O)C(CC)C1S(=O)(=O)CC(=O)O (trans isomer) ?
## Output 5620

## Input K obs / 1 for CCC1C(=O)N(S(=O)(=O)c2ccc(C)cc2)C1C(=O)N(C)CC(=O)O (cis isomer) ?
## Output 165

## Input K obs / 1 for CCOC(=O)N1C(=O)[C@H](CC)[C@H]1OCC(=O)O ?
## Output 918

----------
Target: Neutrophil elastase (Homo sapiens) (UniProt P08246)
Test: Inhibition of human leukocyte elastase, expressed as biomolecular rate constant.
measure: K obs / 1 (M⁻¹ s⁻¹)
Just the number please, in M⁻¹ s⁻¹, no unit attached.

## Input K obs / 1 for CCOC(=O)N1C(=O)C(CC)C1OCCC(=O)O (trans isomer) ?
## Output 560

## Input K obs / 1 for CCOC(=O)N1C(=O)C(CC)C1OCC(=O)NCC(=O)O (stereo not given) ?
## Output 1000

## Input K obs / 1 for CCC1C(=O)N(C(=O)NCc2ccccc2)C1Oc1ccc(CC(=O)O)cc1 (trans isomer) ?
## Output 2070

## Input K obs / 1 for CCOC(=O)N1C(=O)C(CC)C1SCC(=O)O (trans isomer) ?
## Output 1090

## Input K obs / 1 for CC[C@H]1C(=O)N(S(=O)(=O)c2ccc(C)cc2)[C@@H]1C(=O)O ?
## Output 377

----------
Tested on: Cricetinae gen. sp.
Assay: Effective dose administered intratracheally required to give 50% inhibition at 30 minutes prior to installation of human leukocyte elastase in hamster lung
Format: functional, Cricetulus griseus
measure: ED50 (µg)
Just the number please, in µg, no unit attached.

## Input ED50 for CCOC(=O)N1C(=O)C(CC)C1OCC(=O)O (trans isomer) ?
## Output 6.3

## Input ED50 for CC[C@H]1C(=O)N(S(=O)(=O)c2ccc(C)cc2)[C@@H]1C(=O)O ?
## Output 3

## Input ED50 for CCC1C(=O)N(S(=O)(=O)c2ccc(C)cc2)C1C(=O)N(C)CC(=O)O (cis isomer) ?
## Output 18.7

## Input ED50 for CO[C@H]1C(=O)N2C(C(=O)N3CCC[C@H]3C(=O)O)=C(COC(C)=O)CS(=O)(=O)[C@H]12 ?
## Output 3.1

## Input ED50 for CCOC(=O)N1C(=O)[C@@H](CC)[C@@H]1OCC(=O)O ?
## Output 11.3

## Input ED50 for CCOC(=O)N1C(=O)[C@H](CC)[C@H]1OCC(=O)O ?
## Output 3.9

## Input ED50 for CCC1C(=O)N(S(=O)(=O)c2ccc(C)cc2)C1C(=O)OCC(=O)O (cis isomer) ?
## Output 24.6

## Input ED50 for CCCC1C(=O)N(C(=O)OCC)C1OCC(=O)O (stereo not drawn) ?
## Output 6.3

----------
Task for the reader: assign each of the following compounds its reported log10(K obs / 1).
Target: Neutrophil elastase (Homo sapiens) (UniProt P08246)
Assay: Inhibition of human leukocyte elastase, expressed as biomolecular rate constant.
Please interpret these as log10 of K obs / 1 where K obs / 1 is in M⁻¹ s⁻¹.

## Input log10(K obs / 1) for CCOC(=O)N1C(=O)C(CC)C1Oc1ccc(C(=O)O)cc1 (trans isomer) ?
## Output 3.80

## Input log10(K obs / 1) for CCOC(=O)N1C(=O)C(CC)C1OC(C)C(=O)O (single isomer, unassigned; isomer A) ?
## Output 2.54

## Input log10(K obs / 1) for CCC1C(=O)N(S(=O)(=O)c2ccc(C)cc2)C1C(=O)OCC(=O)O (cis isomer) ?
## Output 3.19

## Input log10(K obs / 1) for CCOC(=O)N1C(=O)C(CC)C1Oc1ccc(CC(=O)O)cc1 (trans isomer) ?
## Output 3.61

## Input log10(K obs / 1) for CCOC(=O)N1C(=O)C(CC)C1OCCCC(=O)O (trans isomer) ?
## Output 3.10

## Input log10(K obs / 1) for CC[C@@H]1C(=O)N(S(=O)(=O)c2ccc(C)cc2)[C@@H]1C(=O)N(C)CC(=O)O ?
## Output 2.86

## Input log10(K obs / 1) for CCOC(=O)N1C(=O)[C@@H](CC)[C@@H]1OCC(=O)O ?
## Output 2.13

## Input log10(K obs / 1) for CCOC(=O)N1C(=O)C(CC)C1OCC(=O)O (trans isomer) ?
## Output 2.67

## Input log10(K obs / 1) for CC[C@H]1C(=O)N(S(=O)(=O)c2ccc(C)cc2)[C@H]1C(=O)N(C)CC(=O)O ?
## Output 2.04
